molecular target: GST-DLG1 PDZ domains 1, 2 (Homo sapiens), Q12959; assay: G assay titration, PDZ 5 ug/ml
assay_readout: pKd
Recall that pKd is obtained by taking minus log10 of the concentration measured in molar.

Request: Retrieve pKd measured for LHNQASVPLEPRPLRRESEI (modifications not checked) [Kir2.1 (inwardly rect. K+ channel)] and print it.
Response: 5.30
